experiment: Volume of distribution of daunorubicin following intravenous daunorubicin at 1.2 mg.Kg-1 dose in dog; type: ADME, organism-based, Canis lupus familiaris; parameters: dose 1.2 mg.Kg-1, dosed compound id 2.46809e+06, dosed compound name Daunorubicin, route intravenous; conditions: Beagle, plasma
MEASUREMENT_NAME: Vd (L/kg)
Respond with the bare value in L/kg.

Record request: Vd value, item COc1cccc2c1C(=O)c1c(O)c3c(c(O)c1C2=O)C[C@@](O)(C(C)=O)C[C@@H]3O[C@H]1C[C@H](N)[C@H](O)[C@H](C)O1 [DAUNORUBICIN]
51

* * *

assay: AUC of epirubicin following intravenous epirubicin at 1 mg.Kg-1 dose in rabbit; format: ADME, organism-based, Oryctolagus cuniculus; conditions: both, New Zealand White, plasma
MEASUREMENT_NAME: AUC (ng·h/mL)
I only need the number, in ng·h/mL, no unit after it.

Need AUC of COc1cccc2c1C(=O)c1c(O)c3c(c(O)c1C2=O)C[C@@](O)(C(=O)CO)C[C@@H]3O[C@H]1C[C@H](N)[C@@H](O)[C@H](C)O1.Cl [EPIRUBICIN HYDROCHLORIDE] , thanks.
420

* * *

test: Percentage of doxorubicin excreted unchanged in urine following doxorubicin at 60 mg.m-2 dose in cancer patients; format: ADME, organism-based; design: dose 60 mg.m-2, dosed compound id 2.46809e+06, dosed compound name Doxorubicin; details: human, at 60 mg/m2, read-out: Compound recovery
MEASUREMENT_NAME: dose excreted at 7 Day
Answer as a quantity: numeral, then unit.

Entry under review: "COc1cccc2c1C(=O)c1c(O)c3c(c(O)c1C2=O)C[C@@](O)(C(=O)CO)C[C@@H]3O[C@H]1C[C@H](N)[C@H](O)[C@H](C)O1" . Reported dose excreted at 7 Day?
9%

* * *

assay: Urinary elimination of adriamycin following intravenous bolus adriamycin at 10 mg.Kg-1 dose in rat; type: ADME, organism-based; set-up: dose 10 mg.Kg-1, dosed compound id 2.46809e+06, dosed compound name Doxorubicin, route intravenous, sampling time 0-6 h; conditions: SD, urine, read-out: Compound recovery
MEASUREMENT_NAME: dose excreted (%)
Reply numerically in %, unit not repeated.

Entry "COc1cccc2c1C(=O)c1c(O)c3c(c(O)c1C2=O)C[C@@](O)(C(=O)CO)C[C@@H]3O[C@H]1C[C@H](N)[C@H](O)[C@H](C)O1" has what dose excreted?
2.08

* * *

experiment: Volume of distribution of epirubicin following intravenous epirubicin emulsion at 1 mg.Kg-1 dose in rabbit; assay type: ADME, organism-based, Oryctolagus cuniculus; settings: both, New Zealand White, blood
MEASUREMENT_NAME: Vd (L/kg)
Give a bare numeral; the unit L/kg is implied.

Requested field: Vd. Item: COc1cccc2c1C(=O)c1c(O)c3c(c(O)c1C2=O)C[C@@](O)(C(=O)CO)C[C@@H]3O[C@H]1C[C@H](N)[C@@H](O)[C@H](C)O1.Cl [EPIRUBICIN HYDROCHLORIDE]
18.8

* * *

assay: Volume of distribution of 4'-epiadriamycin intravenous 4'-epiadriamycin at 1.27 mg.Kg-1 dose in dog; type: ADME, organism-based, Canis lupus familiaris; conditions: Beagle, plasma
MEASUREMENT_NAME: Vd (L/kg)
Please give a number only; it is taken to be in L/kg.

What Vd value was documented for this compound, COc1cccc2c1C(=O)c1c(O)c3c(c(O)c1C2=O)C[C@@](O)(C(=O)CO)C[C@@H]3O[C@H]1C[C@H](N)[C@@H](O)[C@H](C)O1.Cl [EPIRUBICIN HYDROCHLORIDE] ?
71.9

* * *

test: AUC of epirubicin following intravenous epirubicin at 3 mg.Kg-1 dose in rabbit; format: ADME, organism-based, Oryctolagus cuniculus; conditions: both, New Zealand White, plasma
MEASUREMENT_NAME: AUC

Value lookup for AUC; key = COc1cccc2c1C(=O)c1c(O)c3c(c(O)c1C2=O)C[C@@](O)(C(=O)CO)C[C@@H]3O[C@H]1C[C@H](N)[C@@H](O)[C@H](C)O1.Cl [EPIRUBICIN HYDROCHLORIDE]
0.62 µg·h/mL

* * *

test: Urinary excretion of epirubicin following epirubicin at 50 mg.m-2 dose in cancer patients; format: ADME, organism-based; details: human, urine, at 50 mg/m2, read-out: Compound recovery
MEASUREMENT_NAME: dose excreted at 96 h (%)
Return type: number; implicit unit %.

Requested field: dose excreted at 96 h. Item: COc1cccc2c1C(=O)c1c(O)c3c(c(O)c1C2=O)C[C@@](O)(C(=O)CO)C[C@@H]3O[C@H]1C[C@H](N)[C@@H](O)[C@H](C)O1.Cl [EPIRUBICIN HYDROCHLORIDE]
9.6

* * *

test: Mean terminal half-life of doxorubicin following intravenous doxorubicin at 60 mg.m-2 dose in cancer patients; conditions: human, plasma
MEASUREMENT_NAME: half-life
Show the value, then the unit it is measured in.

Any idea what half-life was measured for "COc1cccc2c1C(=O)c1c(O)c3c(c(O)c1C2=O)C[C@@](O)(C(=O)CO)C[C@@H]3O[C@H]1C[C@H](N)[C@H](O)[C@H](C)O1" ?
48 h

* * *

test: Half-life of terminal elimination phase of epirubicin following intravenous epirubicin at 60 mg.m-2 dose in cancer patients; format: ADME, organism-based; conditions: human, plasma
MEASUREMENT_NAME: half-life (h)
Record the value in h, omitting the unit from your answer.

Look up half-life for this compound: COc1cccc2c1C(=O)c1c(O)c3c(c(O)c1C2=O)C[C@@](O)(C(=O)CO)C[C@@H]3O[C@H]1C[C@H](N)[C@@H](O)[C@H](C)O1.Cl [EPIRUBICIN HYDROCHLORIDE]
31.4

* * *

assay: Urinary excretion of epirubicin following epirubicin at 50 mg.m-2 dose in cancer patients; assay type: ADME, organism-based; details: human, urine, at 50 mg/m2, read-out: Compound recovery
MEASUREMENT_NAME: dose excreted at 48 h (%)
Respond with the bare value in %.

Which value of dose excreted at 48 h has been reported for COc1cccc2c1C(=O)c1c(O)c3c(c(O)c1C2=O)C[C@@](O)(C(=O)CO)C[C@@H]3O[C@H]1C[C@H](N)[C@@H](O)[C@H](C)O1.Cl [EPIRUBICIN HYDROCHLORIDE] in the records?
6.2

* * *

experiment: Plasma clearance of epirubicin following intrahepatic epirubicin solution at 1 mg.Kg-1 dose in rabbit; type: ADME, organism-based, Oryctolagus cuniculus, Blood; conditions: both, New Zealand White
MEASUREMENT_NAME: CL/F (mL/min)
Output spec: scalar in mL/min, unitless text.

Bench note: what CL/F did COc1cccc2c1C(=O)c1c(O)c3c(c(O)c1C2=O)C[C@@](O)(C(=O)CO)C[C@@H]3O[C@H]1C[C@H](N)[C@@H](O)[C@H](C)O1.Cl [EPIRUBICIN HYDROCHLORIDE] show?
2700

* * *

experiment: Half-life of terminal elimination phase of epirubicin following intravenous epirubicin at 25-35 mg.m-2 dose in cancer patients; format: ADME, organism-based; conditions: human, plasma
MEASUREMENT_NAME: half-life
Reply with a number, then the unit it belongs to.

Form field: reported half-life of COc1cccc2c1C(=O)c1c(O)c3c(c(O)c1C2=O)C[C@@](O)(C(=O)CO)C[C@@H]3O[C@H]1C[C@H](N)[C@@H](O)[C@H](C)O1.Cl [EPIRUBICIN HYDROCHLORIDE]
29.3 h

* * *

experiment: Volume of distribution of 4-dem-daunorubicin following intravenous 4-dem-daunorubicin at 1.0 mg.Kg-1 dose in dog; assay type: ADME, organism-based, Canis lupus familiaris; set-up: dose 1 mg.Kg-1, dosed compound id 2.46809e+06, dosed compound name Idarubicin, route intravenous; settings: Beagle, plasma
MEASUREMENT_NAME: Vd
Entry format: amount then unit.

Fill in: Vd of "CC(=O)[C@]1(O)Cc2c(O)c3c(c(O)c2[C@@H](O[C@H]2C[C@H](N)[C@H](O)[C@H](C)O2)C1)C(=O)c1ccccc1C3=O" is ___
34.5 L/kg

* * *

experiment: Plasma clearance of 4-dem-daunorubicin following intravenous 4-dem-daunorubicin at 1.0 mg.Kg-1 dose in dog; format: ADME, organism-based, Canis lupus familiaris; set-up: dose 1 mg.Kg-1, dosed compound id 2.46809e+06, dosed compound name Idarubicin, route intravenous; details: Beagle, read-out: Clp
MEASUREMENT_NAME: clearance (mL/min)
State just the number; it will be interpreted in mL/min.

# lookup: clearance of CC(=O)[C@]1(O)Cc2c(O)c3c(c(O)c2[C@@H](O[C@H]2C[C@H](N)[C@H](O)[C@H](C)O2)C1)C(=O)c1ccccc1C3=O [IDARUBICIN]
711

* * *

assay: Terminal half-life of carminomycin following intravenous carminomycin at 1.0 mg.Kg-1 dose in dog; assay type: ADME, organism-based, Canis lupus familiaris; parameters: dose 1 mg.Kg-1, dosed compound id 2.46809e+06, dosed compound name Carminomycin, route intravenous; conditions: Beagle, plasma
MEASUREMENT_NAME: half-life (min)
Write the number in min without appending the unit.

# half-life lookup, item "CC(=O)[C@]1(O)Cc2c(O)c3c(c(O)c2[C@@H](O[C@H]2C[C@H](N)[C@H](O)[C@H](C)O2)C1)C(=O)c1c(O)cccc1C3=O"
20.3

The origin of these recorded values is ChEMBL document CHEMBL3508140.
